For each entry below, report its Euclidean distance value.
system: OVCAR4; experiment: Euclidean distance of Cell Painting phenotypic profile (signed KS, 77 features) to DMSO centroid (dimensionless distance); 5 or 10 uM (library dependent); higher = stronger phenotypic change vs DMSO (phenoactivity); conditions: 48 h
Counter-ions that a name gives are not always drawn.
Answers are plain numbers.

COMPOUND: C/C(=C\C(=O)OCCCCCCCCC(=O)O)C[C@@H]1OC[C@H](C[C@@H]2O[C@H]2[C@@H](C)[C@H](C)O)[C@@H](O)[C@H]1O [Mupirocin]
Euclidean distance: 1.35
--
COMPOUND: CC(C)CN(C[C@@H](O)[C@H](Cc1ccccc1)NC(=O)O[C@H]1CO[C@H]2OCC[C@H]21)S(=O)(=O)c1ccc(N)cc1 [Darunavir Ethanolate]
Euclidean distance: 0.797
--
COMPOUND: CCOC(=O)[C@H](CCc1ccccc1)N[C@@H](C)C(=O)N(CC(=O)O)C1Cc2ccccc2C1 [Delapril Hydrochloride]
Euclidean distance: 1.06

## Input I would be grateful if you could share the reported Euclidean distance for CO[C@H]1C(=O)[C@]2(C)[C@@H](OC)C[C@H]3OC[C@@]3(OC(C)=O)[C@H]2[C@H](OC(=O)c2ccccc2)[C@]2(O)C[C@H](OC(=O)[C@H](O)[C@@H](NC(=O)OC(C)(C)C)c3ccccc3)C(C)=C1C2(C)C .
## Output 2.5

----------
For each entry below, report its Euclidean distance value.
system: HEPG2; experiment: Euclidean distance of Cell Painting phenotypic profile (signed KS, 77 features) to DMSO centroid (dimensionless distance); 5 or 10 uM (library dependent); higher = stronger phenotypic change vs DMSO (phenoactivity); settings: 48 h
Counter-ions that a name gives are not always drawn.
Answers are plain numbers.

Some compounds with recorded Euclidean distance:
COMPOUND: CC1=C(/C=C/C(C)=C/C=C/C(C)=C/CO)C(C)(C)CCC1
PROPERTY_LABEL: Euclidean distance
ENDPOINT_RESULT: 0.745
//
COMPOUND: CSc1ccc2c(c1)N(CCC1CCCCN1C)c1ccccc1S2 (stereo not given) [Thioridazine hydrochloride]
PROPERTY_LABEL: Euclidean distance
ENDPOINT_RESULT: 3.33
//
COMPOUND: Cc1nc(C(=O)NCC(=O)O)c(O)c2ccc(Oc3ccccc3)cc12
PROPERTY_LABEL: Euclidean distance
ENDPOINT_RESULT: 1.32
//
COMPOUND: CCOC(=O)C1=C(COCCN)NC(C)=C(C(=O)OC)C1c1ccccc1Cl (stereo not given) [Amlodipine Besylate]
PROPERTY_LABEL: Euclidean distance
ENDPOINT_RESULT: 1.64
//
COMPOUND: C#C[C@]1(O)CC[C@H]2[C@@H]3CCc4cc(O)ccc4[C@H]3CC[C@@]21C
PROPERTY_LABEL: Euclidean distance
ENDPOINT_RESULT: 0.768

Give me Euclidean distance for each of these compounds, listed below.
1. CC[C@H]1OC(=O)[C@H](C)[C@@H](O[C@H]2C[C@@](C)(OC)[C@@H](O)[C@H](C)O2)[C@H](C)[C@@H](O[C@@H]2O[C@H](C)C[C@H](N(C)C)[C@H]2O)[C@](C)(O)C[C@@H](C)CN(C)[C@H](C)[C@@H](O)[C@]1(C)O [Azithromycin Dihydrate]
2. COC(=O)/C=C/C(=O)OC [Dimethyl Fumarate]
3. O=C(Nc1ncc([N+](=O)[O-])s1)c1ccccc1O [Tizoxanide]
4. CN(C)CCCN1c2ccccc2Sc2ccccc21 [Promazine hydrochloride]
5. COc1cc2c(Oc3ccc4[nH]c(C)cc4c3F)ncnc2cc1OCCCN1CCCC1 [Cediranib (AZD2171)]

## Output
[1.71, 1, 2.81, 2.01, 3.58]

----------
For each entry below, report its Euclidean distance value.
tested on: HEPG2; assay: Euclidean distance of Cell Painting phenotypic profile (signed KS, 77 features) to DMSO centroid (dimensionless distance); 5 or 10 uM (library dependent); higher = stronger phenotypic change vs DMSO (phenoactivity); details: 48 h
Structures can show the parent of a compound that is named as a salt.
One number for each entry.

COMPOUND: CC1(C)S[C@@H]2[C@H](NC(=O)[C@H](N)c3ccccc3)C(=O)N2[C@H]1C(=O)OCOC(=O)[C@@H]1N2C(=O)C[C@H]2S(=O)(=O)C1(C)C [Sultamicillin Tosylate]
SYSTEM_NAME: HEPG2
PROPERTY_LABEL: Euclidean distance
ENDPOINT_RESULT: 0.775
--
COMPOUND: CCCS(=O)(=O)N[C@H]1C[C@@H](N(C)c2ncnc3[nH]ccc23)C1
SYSTEM_NAME: HEPG2
PROPERTY_LABEL: Euclidean distance
ENDPOINT_RESULT: 0.71
--
COMPOUND: CCOC(=O)c1ccc(C#Cc2ccc3c(c2)C(C)(C)CCS3)nc1
SYSTEM_NAME: HEPG2
PROPERTY_LABEL: Euclidean distance
ENDPOINT_RESULT: 0.556

Give me Euclidean distance for each of these compounds, listed below.
1. CN(C)C(=O)COC(=O)Cc1ccc(OC(=O)c2ccc(NC(=N)N)cc2)cc1 [Camostat Mesilate]
2. COc1cc(C(=O)OCCCCNC(=N)N)cc(OC)c1O
3. COc1cc(OC)c(/C=C/S(=O)(=O)Cc2ccc(OC)c(NCC(=O)O)c2)c(OC)c1
4. Cc1cccc(Nc2nc(-c3ccncc3)cs2)c1
5. CN(C)CCCN1c2ccccc2CCc2ccccc21 [Imipramine HCl]
6. Cc1ccc(-c2ncc(Cl)cc2-c2ccc(S(C)(=O)=O)cc2)cn1
7. Cc1cc(O)cc(C)c1Cl
8. CCCCOc1ccc(C(=O)CCN2CCCCC2)cc1 [Dyclonine HCl]

## Output
1: 0.823; 2: 0.641; 3: 3.6; 4: 1.11; 5: 1.13; 6: 0.559; 7: 0.668; 8: 1.96

Give me Euclidean distance for each of these compounds, listed below.
1. Cn1c(Cn2ccc(C(F)(F)F)c(Oc3cc(Cl)cc(C#N)c3)c2=O)n[nH]c1=O
2. NC(=O)[C@@H](CCC(F)(F)F)N(Cc1ccc(-c2ncon2)cc1F)S(=O)(=O)c1ccc(Cl)cc1
3. CC(C)OC(=O)C1=CN(C(=O)c2ccc(F)c(F)c2)CC(C)(C)c2c1[nH]c1ccccc21

## Output
0.593
1.48
1.22

----------
For each entry below, report its Euclidean distance value.
system: HEPG2; test: Euclidean distance of Cell Painting phenotypic profile (signed KS, 77 features) to DMSO centroid (dimensionless distance); 5 or 10 uM (library dependent); higher = stronger phenotypic change vs DMSO (phenoactivity); details: 48 h
Answers are plain numbers.

Some compounds with recorded Euclidean distance:
COMPOUND: CCCc1nc2c(C)cc(-c3nc4ccccc4n3C)cc2n1Cc1ccc(-c2ccccc2C(=O)O)cc1
Euclidean distance: 1.95

COMPOUND: C=CC(=O)Nc1cccc(Oc2nc(Nc3ccc(N4CCN(C)CC4)cc3)ncc2Cl)c1
Euclidean distance: 2.28

Proceed to the following item.
## Input I would be grateful if you could share the reported Euclidean distance for CC1(C)S[C@@H]2[C@H](NC(=O)[C@H](N)c3ccc(O)cc3)C(=O)N2[C@H]1C(=O)O [Amoxicillin Sodium] .
## Output 1.08

----------
system: A549; experiment: Euclidean distance of Cell Painting phenotypic profile (signed KS, 77 features) to DMSO centroid (dimensionless distance); 5 or 10 uM (library dependent); higher = stronger phenotypic change vs DMSO (phenoactivity); conditions: 48 h
Counter-ions that a name gives are not always drawn.
PROPERTY_LABEL: Euclidean distance

Some compounds with recorded Euclidean distance:
COMPOUND: CCC(NC(C)C)C(O)c1ccc(O)c(O)c1 (stereo not drawn) [Isoetharine Mesylate]
SYSTEM_NAME: A549
ENDPOINT_RESULT: 0.789
//
COMPOUND: COC[C@H](NC(=O)c1cnc(C)s1)C(=O)N[C@@H](COC)C(=O)N[C@@H](Cc1ccccc1)C(=O)[C@@]1(C)CO1 [Oprozomib (ONX 0912)]
SYSTEM_NAME: A549
ENDPOINT_RESULT: 4.48
//
COMPOUND: CCOC(=O)[C@H](CCc1ccccc1)N[C@@H](C)C(=O)N1C(=O)N(C)C[C@H]1C(=O)O [Imidapril HCl]
SYSTEM_NAME: A549
ENDPOINT_RESULT: 0.657
//
COMPOUND: Cc1c(C(=O)N2CCOc3ccc(-c4ccc(N)nc4)cc3C2)ccc(S(C)(=O)=O)c1F
SYSTEM_NAME: A549
ENDPOINT_RESULT: 2.65

Give me Euclidean distance for each of these compounds, listed below.
1. C[C@H](NC(=O)[C@@H](Cc1ccc2ccccc2c1)NC(=O)[C@@H](C)N)C(=O)N[C@@H](Cc1c[nH]c2ccccc12)C(=O)N[C@H](Cc1ccccc1)C(=O)N[C@@H](CCCCN)C(N)=O
2. CC[C@H]1OC(=O)C[C@@H](O)[C@H](C)[C@@H](O[C@@H]2O[C@H](C)[C@@H](O)[C@H](N(C)C)[C@H]2O)[C@@H](CCN2C[C@H](C)C[C@H](C)C2)C[C@@H](C)C(=O)/C=C/C(C)=C/[C@@H]1CO[C@@H]1O[C@H](C)[C@@H](O)[C@@H](OC)[C@H]1OC [Tilmicosin]
3. O=C(CCCN1CC=C(n2c(=O)[nH]c3ccccc32)CC1)c1ccc(F)cc1 [Droperidol]
4. Nc1nc(=O)n([C@@H]2CS[C@H](CO)O2)cc1F [Emtricitabine]

## Output
1: 0.626; 2: 0.579; 3: 0.569; 4: 0.783
